# Tested on: Serine/threonine-protein kinase B-raf (Homo sapiens), P15056 [V600E];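 note: mean inhibition of the BRAF V599E mutant, from GSK PKIS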
# Sequence (P15056 whole entry V600E): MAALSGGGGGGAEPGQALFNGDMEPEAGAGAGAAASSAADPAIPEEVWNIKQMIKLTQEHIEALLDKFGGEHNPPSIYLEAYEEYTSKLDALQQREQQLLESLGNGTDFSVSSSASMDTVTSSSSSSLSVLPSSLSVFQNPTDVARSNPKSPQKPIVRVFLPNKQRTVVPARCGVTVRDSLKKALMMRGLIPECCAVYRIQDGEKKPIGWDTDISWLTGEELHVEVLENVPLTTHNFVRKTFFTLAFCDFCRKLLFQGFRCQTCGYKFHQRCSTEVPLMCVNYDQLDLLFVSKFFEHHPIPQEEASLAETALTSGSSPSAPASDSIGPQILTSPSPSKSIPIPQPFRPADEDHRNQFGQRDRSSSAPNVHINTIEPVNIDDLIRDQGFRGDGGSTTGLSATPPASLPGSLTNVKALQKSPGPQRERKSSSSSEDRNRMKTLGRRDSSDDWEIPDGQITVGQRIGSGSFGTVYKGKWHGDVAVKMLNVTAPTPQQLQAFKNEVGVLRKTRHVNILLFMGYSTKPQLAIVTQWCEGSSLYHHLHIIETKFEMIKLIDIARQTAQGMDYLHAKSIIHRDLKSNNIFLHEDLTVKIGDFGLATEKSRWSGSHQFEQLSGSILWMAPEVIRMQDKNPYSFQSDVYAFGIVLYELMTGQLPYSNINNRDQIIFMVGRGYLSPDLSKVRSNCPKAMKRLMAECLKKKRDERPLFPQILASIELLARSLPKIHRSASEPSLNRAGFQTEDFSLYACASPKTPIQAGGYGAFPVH
# Measurement parameters: at 0.1 µM
# Description: GSK_PKIS: BRAF (V599E mutant) mean inhibition at 0.1 uM [Nanosyn]
Property name: inhibition (%)

COc1cccc(Nc2nccc(-c3cnn4ncccc34)n2)c1 :: 4.52
Cc1cc(O)cc(C)c1/C=C/c1cncc(C(=O)OC(C)(C)C)c1 :: 3.83
CNC(=O)c1cncc(/C=C/c2ccccc2C)c1 :: 6.48
CN(C)CCNC(=O)Nc1ccc(N(C)c2ccnc(Nc3ccc(CS(C)(=O)=O)cc3)n2)cc1 :: 5.5
Fc1ccc(Nc2nccc(-c3c(-c4ccc(C(F)(F)F)cc4)nn4ncccc34)n2)cc1F :: 3.45
COc1ccc(-c2nn3ncccc3c2-c2ccnc(Nc3ccc(F)c(F)c3)n2)cc1 :: 4.54
CC1=C(C(=O)Nc2ccc3[nH]ncc3c2)C(c2ccc(F)cc2)N=C(c2ccc(C(F)(F)F)nc2)N1 (stereo not given) :: 1.17
CN(c1ccc(NC(=O)NCCN2CCOCC2)cc1)c1ccnc(Nc2ccc(CS(C)(=O)=O)cc2)n1 :: 3.94
NS(=O)(=O)c1ccc(N/N=C2\C(=O)Nc3cccc(CCc4ccncc4)c32)cc1 :: 3.22
OCCCNc1nccc(-c2c(-c3ccc(F)cc3)nn3cc(C(F)(F)F)ccc23)n1 :: 2.84
COc1c(C(N)=O)cc(-c2ccc(Cl)cc2)cc1-c1ccc(S(N)(=O)=O)cc1 :: 4.06
COc1cc2c(cc1Nc1nc(Nc3cccc(F)c3C(N)=O)c3cc[nH]c3n1)N(C(=O)CN1CCN(C(C)C)CC1)CC2 :: 2.2
COc1cc(N2CCN(C(C)C)CC2)ccc1Nc1nc(Nc2cccc(F)c2C(=O)O)c2cc[nH]c2n1 :: 6.27
COc1cc(N2CCN(C(C)C)CC2)ccc1Nc1nc(Nc2cccc3ncccc23)c2cc[nH]c2n1 :: 0.32
COC(=O)Nc1nc2cc(Oc3ccc(NC(=O)Nc4ccccc4)cc3)ccc2[nH]1 :: 5.49
CCS(=O)(=O)c1ccc(OC)c(Nc2ncc(-c3cccc(F)c3)o2)c1 :: 4.95
O=C(O[C@H]1CN[C@H](C#Cc2cc3ncnc(Nc4ccc(OCc5cccc(F)c5)c(Cl)c4)c3s2)C1)N1CCOCC1 :: 8.49
Cc1cc(O)cc(C)c1/C=C/c1cncc(C(N)=O)c1 :: 3.8
CS(=O)(=O)Nc1ccc(-c2cc(-c3ccccc3)cc(C(N)=O)c2N)cc1 :: 2.93
NC(=O)c1ccc2c(-c3ccnc(NCCCO)n3)c(-c3ccc(F)cc3)nn2c1 :: 9.67
Cc1c2ccc(N(C)c3ccnc(Nc4cccc(S(N)(=O)=O)c4)n3)cc2nn1C :: 8.28
FC(F)(F)CNc1nccc(-c2cnn3ncccc23)n1 :: 3.08
COc1cc(Nc2ncc(-c3ccccc3)o2)cc(OC)c1 :: 5.31
COc1cccc(-n2ncc3c(N/N=C/c4ccc(C(=O)NCCN(C)C)cc4)ncnc32)c1 :: 9.71
Cc1nnc(-c2cccc(-c3ccc(C(=O)NCC4CC4)cc3)c2)o1 :: 7.4
